- Assay Info: chemical genetic growth profiling, strain panel (AID 1159580);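 note: tested at 20 µM; growth read once vehicle control cultures reached saturation at 30 °C; 1 = growth at the plate median or of vehicle wells; lower values mean less growth of the strain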
- Measurement Parameters: S. cerevisiae deletion strains, growth OD, locus YHR079C, strain IRE1, active compounds read low
The whole screen tested about 5,500 compounds, of which about 2,000 (36%) were called active. About 18% were inconclusive and are not listed. Some of the results follow.
Listing of entries alongside the reported normalized growth.
Observed Property: normalized growth

1. CC(=O)OCC1=C(C(=O)O)N2C(=O)[C@@H](NC(=O)CSc3ccncc3)[C@H]2SC1 : 1.01
2. Oc1cccc2cccnc12 : 0.908
3. O=c1c(O)c(-c2ccccc2)oc2ccccc12 : 0.812
4. OC[C@H]1O[C@@H](Oc2ccc(O)cc2)[C@H](O)[C@@H](O)[C@@H]1O : 0.973
5. N#CC(C(=O)Nc1cccc(C(F)(F)F)c1)C(=S)Nc1ccccc1Cl (stereo unspecified) : 0.978
6. CCCN(CCC)c1c([N+](=O)[O-])cc(C(F)(F)F)cc1[N+](=O)[O-] : 0.979
7. CNC(C)[C@@H]1CC[C@@H](N)[C@@H](OC2[C@@H](N)C[C@@H](N)[C@H](OC3OC[C@](C)(O)[C@H](NC)[C@H]3O)[C@H]2O)O1 (stereo partly specified) : 1.01
8. O=C(O)c1cc(=O)c2ccccc2[nH]1 : 0.985
9. FC(F)(F)c1ccncc1-c1nc(-c2ccc(Cl)cc2)cs1 : 0.775
10. O=c1c(O)c(-c2ccccc2)oc2cccc(O)c12 : 0.839
11. CC(=O)O[C@@H]1C2CC[C@@H]3C1(C[C@@H](O)[C@@]1(O)[C@@H](C[C@H](O)C1(C)C)[C@]3(C)O)C[C@@]2(C)O (stereo partly specified) : 0.959

Sourced from PubChem BioAssay AID1159580
